- TARGET_OF_ASSAY: T1, human mature dimer BMP9 recombinant protein (manufactured by R&D systems, Cat#3209-BP) (human, UniProt Q9UK05 320-429)
- T1 construct: Bought protein; also called human BMP9; human BMP9 recombinant protein (manufactured by R&D systems)
- T1 sequence: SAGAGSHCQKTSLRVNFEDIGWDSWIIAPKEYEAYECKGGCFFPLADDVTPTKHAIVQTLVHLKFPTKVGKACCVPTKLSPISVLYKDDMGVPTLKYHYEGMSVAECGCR
- MEASUREMENT_PROTOCOL: SPR (Biacore T100), antibody captured on anti-human IgG, human BMP9 (R&D 3209-BP) as analyte, 5 concentrations from 1 nM

BINDER | kon (M⁻¹ s⁻¹)
10D5-2-3 antibody-humanized antibody HV9LV3 (antibody, V domains shown, Expressed from pKANTEX93) VH: EVQLVESRGGLVQPGGSMRLSCAASGFTFSNYWMNWVRQAPGKGLEWVAHIRLKSDNYATHYAESVRGRFTISRDDSKSSVYLQMNSLKTEDTGIYYCTGGSNYVFAFWGQGTLVTVSS VL: DIVMTQSPDSLAVSLGERATINCRASESVDNYGISFMNWFQQKPGQPPKLLIYAASNQGSGVPDRFSGSGSGTDFTLTISPLQAEDVAVYFCQQSKEVPWTFGQGTKLEIK | 7.91e+07
10D5-2-3 antibody-humanized antibody HV4bLV0 (antibody, V domains shown, Expressed from pKANTEX93) VH: EVQLVESGGGLVQPGGSLRLSCAASGFTFSNYWMNWVRQAPGKGLEWVAHIRLKSDNYATHYAESVRGRFTISRDDSKNSLYLQMNSLKTEDTAIYYCTGGSNYVFAFWGQGTLVTVSS VL: DIVMTQSPDSLAVSLGERATINCRASESVDNYGISFMNWYQQKPGQPPKLLIYAASNQGSGVPDRFSGSGSGTDFTLTISSLQAEDVAVYYCQQSKEVPWTFGQGTKLEIK | 1.44e+08
10D5-2-3 antibody-humanized antibody HV7bLV2 (antibody, V domains shown, Expressed from pKANTEX93) VH: EVQLVESRGGLVQPGGSMRLSCAASGFTFSNYWMNWVRQAPGKGLEWVAHIRLKSDNYATHYAESVRGRFTISRDDSKNSVYLQMNSLKTEDTGVYYCTGGSNYVFAFWGQGTLVTVSS VL: DIVMTQSPDSLAVSLGERATINCRASESVDNYGISFMNWFQQKPGQPPKLLIYAASNQGSGVPDRFSGSGSGTDFTLTISSLQAEDVAVYFCQQSKEVPWTFGQGTKLEIK | 6.25e+07
10D5-2-3 antibody-humanized antibody HV3LV2 (antibody, V domains shown, Expressed from pKANTEX93) VH: EVQLVESGGGLVQPGGSLRLSCAASGFTFSNYWMNWVRQAPGKGLEWVAHIRLKSDNYATHYAESVRGRFTISRDDSKNSLYLQMNSLKTEDTAVYYCTGGSNYVFAFWGQGTLVTVSS VL: DIVMTQSPDSLAVSLGERATINCRASESVDNYGISFMNWFQQKPGQPPKLLIYAASNQGSGVPDRFSGSGSGTDFTLTISSLQAEDVAVYFCQQSKEVPWTFGQGTKLEIK | 5.12e+07
10D5-2-3 antibody-humanized antibody HV7aLV2 (antibody, V domains shown, Expressed from pKANTEX93) VH: EVQLVESRGGLVQPGGSMRLSCAASGFTFSNYWMNWVRQAPGKGLEWVAHIRLKSDNYATHYAESVRGRFTISRDDSKSSLYLQMNSLKTEDTGVYYCTGGSNYVFAFWGQGTLVTVSS VL: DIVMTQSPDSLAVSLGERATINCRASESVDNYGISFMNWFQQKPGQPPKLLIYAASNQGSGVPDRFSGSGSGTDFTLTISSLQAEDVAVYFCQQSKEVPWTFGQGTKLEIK | 4.98e+07
10D5-2-3 antibody-humanized antibody HV9LV2 (antibody, V domains shown, Expressed from pKANTEX93) VH: EVQLVESRGGLVQPGGSMRLSCAASGFTFSNYWMNWVRQAPGKGLEWVAHIRLKSDNYATHYAESVRGRFTISRDDSKSSVYLQMNSLKTEDTGIYYCTGGSNYVFAFWGQGTLVTVSS VL: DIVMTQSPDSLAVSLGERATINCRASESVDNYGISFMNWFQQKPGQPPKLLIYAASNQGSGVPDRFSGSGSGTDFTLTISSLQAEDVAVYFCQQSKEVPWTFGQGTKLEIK | 8.91e+07
10D5-2-3 antibody-humanized antibody HV7aLV0 (antibody, V domains shown, Expressed from pKANTEX93) VH: EVQLVESRGGLVQPGGSMRLSCAASGFTFSNYWMNWVRQAPGKGLEWVAHIRLKSDNYATHYAESVRGRFTISRDDSKSSLYLQMNSLKTEDTGVYYCTGGSNYVFAFWGQGTLVTVSS VL: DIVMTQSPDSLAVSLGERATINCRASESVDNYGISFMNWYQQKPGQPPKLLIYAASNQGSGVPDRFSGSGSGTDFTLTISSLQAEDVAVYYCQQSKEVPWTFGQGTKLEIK | 1.47e+08
10D5-2-3 antibody-humanized antibody HV9LV4 (antibody, V domains shown, Expressed from pKANTEX93) VH: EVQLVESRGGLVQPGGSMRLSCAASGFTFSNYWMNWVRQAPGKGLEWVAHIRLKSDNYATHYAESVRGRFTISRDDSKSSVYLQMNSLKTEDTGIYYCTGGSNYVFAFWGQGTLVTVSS VL: DIVLTQSPDSLAVSLGERATINCRASESVDNYGISFMNWYQQKPGQPPKLLIYAASNQGSGVPDRFSGSGSGTDFTLTISPMQAEDVAMYYCQQSKEVPWTFGQGTKLEIK | 1.16e+08
10D5-2-3 antibody-humanized antibody HV4bLV2 (antibody, V domains shown, Expressed from pKANTEX93) VH: EVQLVESGGGLVQPGGSLRLSCAASGFTFSNYWMNWVRQAPGKGLEWVAHIRLKSDNYATHYAESVRGRFTISRDDSKNSLYLQMNSLKTEDTAIYYCTGGSNYVFAFWGQGTLVTVSS VL: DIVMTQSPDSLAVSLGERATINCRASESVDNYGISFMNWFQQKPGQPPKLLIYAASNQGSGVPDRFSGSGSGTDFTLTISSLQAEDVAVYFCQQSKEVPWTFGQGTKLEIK | 5.39e+07
